# System: HCT116
# METHOD: MTT assay, cell proliferation
# Type: cell-based
# TEST_CONDITIONS: Homo sapiens, HCT-116, 24 h, read-out: IC50, inhibition of cell proliferation
EXPERIMENTAL_ENDPOINT: pIC50
Units for pIC50: none; it is -log10 of a concentration expressed in mol/L.

CC(C)=CCCC1(C)C=Cc2c(O)c3c(c(CC=C(C)C)c2O1)OC12C(=CC4CC1C(C)(C)OC2(C/C=C(/C)C(=O)Oc1cc2ccccc2oc1=O)C4=O)C3=O (stereo not drawn) [Compound 6, Coumarin-3-gambogate] ... 4.84
CC(C)=CCCC1(C)C=Cc2c(O)c3c(c(CC=C(C)C)c2O1)OC12C(=CC4CC1C(C)(C)OC2(C/C=C(/C)C(=O)Nc1nc2ccccc2s1)C4=O)C3=O (stereo not drawn) [Compound 34, N-(benzo[d]thiazol-2-yl) gambogamide] ... 5.11

Using the record for COCCc1ccc(OC(=O)/C(C)=C\CC23OC(C)(C)C4CC(C=C5C(=O)c6c(O)c7c(c(CC=C(C)C)c6OC542)OC(C)(CCC=C(C)C)C=C7)C3=O)cc1 (stereo not drawn) [Compound 18, 4-(2-Methoxyethyl)phenyl gambogate] , state its measured pIC50. 5.61

Tell me its pIC50 given COc1ccc(OC(=O)/C(C)=C\CC23OC(C)(C)C4CC(C=C5C(=O)c6c(O)c7c(c(CC=C(C)C)c6OC542)OC(C)(CCC=C(C)C)C=C7)C3=O)cc1 (stereo not drawn) [Compound 13, 4-Methoxyphenyl gambogate] as the entry. 4.76

Specify reported pIC50 for the molecule shown: COc1ccc(-c2csc(NC(=O)/C(C)=C\CC34OC(C)(C)C5CC(C=C6C(=O)c7c(O)c8c(c(CC=C(C)C)c7OC653)OC(C)(CCC=C(C)C)C=C8)C4=O)n2)cc1 (stereo not drawn) [Compound 31, 4-(4-Methoxyphenyl)thiazol-2-gambogamide] 4.72

###

# Test system: transgenic fli-1: enhanced GFP zebrafish embryos
# METHOD: Zebrafish embryo assay: antiangiogenic effects
# Format: in vivo, zebrafish (Danio rerio)
# TEST_CONDITIONS: Danio rerio; 1 μM; zebrafish embryos; vs vehicle (0.05% DMSO); read-out: Anti-angiogenic phenotype
EXPERIMENTAL_ENDPOINT: inhibition in vivo at 1 µM

Worked cases, answers included:
CC(C)=CCCC1(C)C=Cc2c(O)c3c(c(CC=C(C)C)c2O1)OC12C(=CC4CC1C(C)(C)OC2(C/C=C(/C)C(=O)Oc1ccc(NC(=O)CCCl)cc1)C4=O)C3=O (stereo not shown) ... < 25%
CC(C)=CCC[C@]1(C)C=Cc2c(O)c3c(c(CC=C(C)C)c2O1)O[C@]12C(=C[C@@H]4C[C@H]1C(C)(C)O[C@@]2(C/C=C(/C)C(=O)O)C4=O)C3=O ... 25 to 50%
CC(=O)Nc1ccc(NC(=O)/C(C)=C\CC23OC(C)(C)C4CC(C=C5C(=O)c6c(O)c7c(c(CC8OC8(C)C)c6OC542)OC(C)(CCC2OC2(C)C)C=C7)C3=O)cc1 (stereo not shown) ... 25 to 50%

Moving on to the next molecule.
// fetch inhibition in vivo at 1 µM given entry CCCC(=O)Nc1ccc(OC(=O)/C(C)=C\CC23OC(C)(C)C4CC(C=C5C(=O)c6c(O)c7c(c(CC=C(C)C)c6OC542)OC(C)(CCC=C(C)C)C=C7)C3=O)cc1 (stereo not shown) [Compound 26, 4-Butyramidophenyl gambogate] 25 to 50%
